The measured values listed here are drawn from the domain aggregation screens of Martell et al. (2025).

Experiment: soluble fraction after stress (log2 fold change); higher = more stays soluble; pooled small domains, quantitative proteomics
Details: stress: pH 4
Use condition met when the recorded soluble fraction (log2) is no lower than -0.4; use condition not met when it is lower.

Some solved cases for reference:
{"columns": ["construct_sequence", "label_class"],
 "data": [
  ["HMILYDDEYKGPRYRYGLHSRPLSPGAVPKGFIIHSDRPHPDFRHGTLDYPVKLPDDRAANFELIFIGEFD", "condition not met"],
  ["HMTNKKIILEIFQNSDKPLIVEEISKKMFEKTGKKMILSTIYRNLKNMEDVGILKKIYNEDGSYMYIF", "condition not met"],
  ["HMDVNMLVTGMLHKGEKSFVRVSFLRGKDWAEGIVPDAKIEKSQGFMEEEVARLEAYLLEQKSMIMEQA", "condition not met"],
  ["HMELLTNPLTGREVEVLTLMALGQTNHEIARQLYLATGTVKAHTSSIYRKLDVANRTEAVARARQLGIL", "condition not met"],
  ["HMIQIQDIAFSEFLQELDKGNIVEVNIKGDLINGDLINGKKFKTVAPYDPNLVEKLSKQNVRINVEPIN", "condition met"],
  ["HMGENTIFSGVLGEGRLDSALAHALPQFSRARIQGLIAEDAVLIAGKATNDAASKKFAGQSFELSVPAPRP", "condition met"]
]}

Decide: is the reported value of soluble fraction (log2) for HMKGKIYFFEEGVDRVGGVERVISTLANEFSKKYKVNVISFYKTRKETFFKYNSDIDITYLSK equal to or greater than -0.4?
condition met

Decide: is the reported value of soluble fraction (log2) for HMIDSVFASYRQVALDDELWDKVRNGAVLPKVELFEVMDGPVLFTYQSKIVAMYEPHPTKAGYIKPRKMFL equal to or greater than -0.4?
condition not met

Decide: is the reported value of soluble fraction (log2) for HMVKETNYSFFLKQIDAGTVEQVQIEDTEIKFKVSTADGKEQVYSTVRVEDPDLVDRLYSKGNIDFTGN equal to or greater than -0.4?
condition not met

Decide: is the reported value of soluble fraction (log2) for HMEEIIPIRFLRHRVKRRETIFGLTQKYNITEDQLKRYNTRLYSEALERKMVLQIPVFPEVDED equal to or greater than -0.4?
condition not met

----------
Experiment: soluble fraction after stress (log2 fold change); higher = more stays soluble; pooled small domains, quantitative proteomics
Conditions: stress: pH 4
readout_label: soluble fraction (log2)
Hey, just send me the number, nothing else.

{"columns": ["construct_sequence", "numeric_value"],
 "data": [
  ["HMLRKTTDLDAIRSVAKDVIDQNPKAVEDYVGGKESAIGFLLGQVMRATKGTADANTVRELLKEILDS", -0.234],
  ["HMQRYYDVLGLQKGVSPEELKKTYRELSKKYHPDAHHNSPLRDLAEAKFKEINEAYEKIKEFLDNNF", -0.597],
  ["HMISEGDIIKGTVIDVNEEEVILDLKYYAQGVIKAENLSNDPDFLAAGKISVGDEIEATVIKMDDGEGNIE", -0.496],
  ["HMQASIPQSQKDALAKELQALPPHGRNRVLSTFRQQFNISSEKISEFITTPEHLSFIRSKIAEVESDS", -0.529],
  ["HMSTKEFTIHAGEWSYRVSQKLENLGLVSDAKKFDQYLEDNGYSSKIKIGHYTISKDADFEEIAKEIT", 0.0658]
]}

Param item = HMDSINGEASISRELHGTRFDQAAAILFPEFSRSRLQAWIGAGALTLDGQTARAKDKVTQGQHLVLAAAVE ; retrieve measured soluble fraction (log2).
-0.536

Param item = HMLSDFHLNHDSIVNHTVQKKETIFSLSKKYGLSINEIIKANPGIQIDKLKRRSILIIPLRKK ; retrieve measured soluble fraction (log2).
-0.12

Param item = HMGSVNDNVQKLTSQIGETTETGDTITPEDVELYKKMVDPLSTMAQKLEAAEILKLKGIIGSNGIIV ; retrieve measured soluble fraction (log2).
-0.0476
